EC50 by entry:
# studySystem: mouse TLR7 (Mus musculus)
# Sequence (P58681 27-1050): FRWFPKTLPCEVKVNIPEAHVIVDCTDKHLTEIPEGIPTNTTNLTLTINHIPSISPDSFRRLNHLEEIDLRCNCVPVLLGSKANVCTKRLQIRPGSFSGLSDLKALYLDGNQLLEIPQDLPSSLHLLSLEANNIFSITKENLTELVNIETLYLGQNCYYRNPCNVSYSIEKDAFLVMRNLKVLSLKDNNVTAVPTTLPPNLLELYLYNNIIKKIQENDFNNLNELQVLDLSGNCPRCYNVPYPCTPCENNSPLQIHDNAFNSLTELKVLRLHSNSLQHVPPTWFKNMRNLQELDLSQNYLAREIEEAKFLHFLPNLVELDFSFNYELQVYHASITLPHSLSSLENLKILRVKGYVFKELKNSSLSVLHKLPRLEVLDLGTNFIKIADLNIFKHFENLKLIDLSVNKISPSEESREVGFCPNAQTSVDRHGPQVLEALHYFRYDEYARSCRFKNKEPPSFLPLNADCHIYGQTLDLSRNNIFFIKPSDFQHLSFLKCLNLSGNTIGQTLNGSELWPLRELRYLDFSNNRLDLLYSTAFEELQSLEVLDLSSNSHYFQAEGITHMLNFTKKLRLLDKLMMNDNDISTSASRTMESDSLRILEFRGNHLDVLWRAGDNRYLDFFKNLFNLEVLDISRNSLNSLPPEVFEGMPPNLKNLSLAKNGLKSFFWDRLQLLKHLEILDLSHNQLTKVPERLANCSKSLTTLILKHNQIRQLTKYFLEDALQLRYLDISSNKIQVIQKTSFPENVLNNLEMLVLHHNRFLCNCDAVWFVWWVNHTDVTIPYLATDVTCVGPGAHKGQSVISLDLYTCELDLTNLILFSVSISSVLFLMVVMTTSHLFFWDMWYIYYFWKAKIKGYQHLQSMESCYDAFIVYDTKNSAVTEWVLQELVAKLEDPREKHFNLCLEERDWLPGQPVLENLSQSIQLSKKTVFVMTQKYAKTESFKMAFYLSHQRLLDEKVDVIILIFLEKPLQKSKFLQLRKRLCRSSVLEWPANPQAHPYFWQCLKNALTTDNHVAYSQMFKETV
# assayProcedure: TLR7/8 reporter assay (HEK293, NFκB Nanoluc luciferase reporter), mouse TLR7
# experimentalConditions: 24-hour incubation; read-out: mTLR7 EC50
Where a name gives a salt, the structure may show the parent alone.
Give the value, in units of nM, as a plain number.

Solved cases below.
compound	studySystem	numericValue
CCCCCNc1nc(N)nc2c(Cl)cn(Cc3ccc(CN4CCC[C@H]4C(C)(C)O)cc3OC)c12	mouse TLR7 (Mus musculus)	13.9
CCCCCNc1nc(N)nc2ccn(Cc3ccc(CN4CCN[C@@H](CF)C4)cc3OC)c12 [Ex2, (trifluoroacetic acid) salt]	mouse TLR7 (Mus musculus)	5.36
CCCCCNc1nc(N)nc2ccn(Cc3ccc(CNCC4CCC4)cc3OC)c12	mouse TLR7 (Mus musculus)	3.58

The compound listed as CCCCCNc1nc(N)nc2c(Cl)cn(Cc3ccc(CN4CC[C@H]4CO)cc3OC)c12 shows EC50 equal to 7.11

* * *

# studySystem: human TLR7 (Homo sapiens)
# Sequence (Q9NYK1 27-1049): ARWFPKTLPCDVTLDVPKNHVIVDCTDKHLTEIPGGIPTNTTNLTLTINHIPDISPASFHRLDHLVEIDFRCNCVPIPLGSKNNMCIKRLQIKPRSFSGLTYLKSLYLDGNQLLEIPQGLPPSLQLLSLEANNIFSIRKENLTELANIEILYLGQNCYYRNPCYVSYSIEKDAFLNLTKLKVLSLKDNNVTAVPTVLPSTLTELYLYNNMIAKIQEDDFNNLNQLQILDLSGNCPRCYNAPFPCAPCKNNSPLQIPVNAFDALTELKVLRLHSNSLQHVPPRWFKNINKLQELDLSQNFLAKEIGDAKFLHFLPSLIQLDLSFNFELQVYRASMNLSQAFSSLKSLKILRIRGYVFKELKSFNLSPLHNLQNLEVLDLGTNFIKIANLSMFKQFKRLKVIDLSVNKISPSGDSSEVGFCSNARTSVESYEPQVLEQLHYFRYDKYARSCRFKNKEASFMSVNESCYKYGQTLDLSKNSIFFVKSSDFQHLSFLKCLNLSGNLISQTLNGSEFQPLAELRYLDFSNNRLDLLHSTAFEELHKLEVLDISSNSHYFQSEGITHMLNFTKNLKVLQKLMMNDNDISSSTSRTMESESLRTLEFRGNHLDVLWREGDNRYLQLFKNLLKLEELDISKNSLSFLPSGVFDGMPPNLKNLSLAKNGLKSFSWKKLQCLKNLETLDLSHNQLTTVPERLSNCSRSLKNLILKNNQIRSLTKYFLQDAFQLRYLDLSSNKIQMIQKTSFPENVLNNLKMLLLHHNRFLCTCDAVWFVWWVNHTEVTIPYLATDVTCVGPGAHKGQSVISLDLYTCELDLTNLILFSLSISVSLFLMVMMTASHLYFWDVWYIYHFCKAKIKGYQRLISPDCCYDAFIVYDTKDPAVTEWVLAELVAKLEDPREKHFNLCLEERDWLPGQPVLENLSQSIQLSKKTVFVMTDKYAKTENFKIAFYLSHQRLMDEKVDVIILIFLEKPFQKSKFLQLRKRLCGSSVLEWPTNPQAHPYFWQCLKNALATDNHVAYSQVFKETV
# assayProcedure: TLR7/8 reporter assay (HEK293, NFκB Nanoluc luciferase reporter), human TLR7
# experimentalConditions: 24-hour incubation; read-out: hTLR7 EC50
Structures can show the parent of a compound that is named as a salt.
Reported EC50 values are given for each entry in this list.
State just the number; it will be interpreted in nM.

Recorded EC50, per entry:
compound	studySystem	numericValue
CCCCCSc1nc(N)nc2ccn(Cc3ccc(CN4CCNCC4)cc3OC)c12	human TLR7 (Homo sapiens)	54.2
CCCCCSc1nc(N)nc2ccn(Cc3ccc(CN4CCC(O)CC4)cc3OC)c12	human TLR7 (Homo sapiens)	28.8
CCCCCNc1nc(N)nc2c(Cl)cn(Cc3ccc(CN4CC[C@H]4CO)cc3OC)c12	human TLR7 (Homo sapiens)	2.52
COc1cc(CN2CCNC[C@H]2CF)ccc1Cn1ccc2nc(N)nc(SCc3cc(C)on3)c21	human TLR7 (Homo sapiens)	17.8
CCCCCSc1nc(N)nc2ccn(Cc3ccc(CN4CC[C@@H](CN)C4)cc3OC)c12	human TLR7 (Homo sapiens)	138
CCCCCSc1nc(N)nc2ccn(Cc3ccc(CN4CC[C@H]4CO)cc3OC)c12	human TLR7 (Homo sapiens)	23.3

Observed EC50 on human TLR7 (Homo sapiens), entry CCCCCNc1nc(N)nc2ccn(Cc3ccc(CNCC4CCC4)cc3OC)c12 , equals 1.87

Bench note, human TLR7 (Homo sapiens): entry CCCCCNc1nc(N)nc2ccn(Cc3ccc(CN4CCNC[C@H]4CF)cc3OC)c12 , its EC50 = 1.12

Param item: CCCCCNc1nc(N)nc2ccn(Cc3ccc(CNC4CC4)cc3OC)c12 ; param system: human TLR7 (Homo sapiens); output EC50: 3.47

Result for CCCCCNc1nc(N)nc2c(Br)cn(Cc3ccc(CN4CCC[C@H]4CO)cc3OC)c12 , tested on human TLR7 (Homo sapiens), EC50: 8.1

Assay human TLR7 (Homo sapiens), sample CCCCCNc1nc(N)nc2ccn(Cc3ccc(CN4CCNC[C@@H]4CF)cc3OC)c12 , EC50 read: 2.74

Measured EC50 (human TLR7 (Homo sapiens)), entry CCCCCNc1nc(N)nc2ccn(Cc3ccc(CN4CCN[C@@H](CF)C4)cc3OC)c12 [Ex2, (trifluoroacetic acid) salt] : 1.77

Field EC50 (human TLR7 (Homo sapiens)), entry CCCCCNc1nc(N)nc2c(Cl)cn(Cc3ccc(CN4CCC[C@H]4C(C)(C)O)cc3OC)c12 : 6.57

Per the reported human TLR7 (Homo sapiens) data, CCCCCNc1nc(N)nc2c(Cl)cn(Cc3ccc(CN4CCC[C@H]4CO)cc3OC)c12 has EC50 of 3.22

Value (EC50, human TLR7 (Homo sapiens)) for record CCCCCNc1nc(N)nc2ccn(Cc3ccc(CC4CCNCC4)cc3OC)c12 = 2.78

The observed EC50 for CCCCCNc1nc(N)nc2cc(C)n(Cc3ccc(CN4CCNCC4)cc3OC)c12 [Ex8, hydrochloride] when tested with human TLR7 (Homo sapiens) stands at 11.3

Record for CCCCCSc1nc(N)nc2ccn(Cc3ccc(CN4CCC[C@H]4CO)cc3OC)c12 under target or system human TLR7 (Homo sapiens): EC50 reported as 45

* * *

# studySystem: human TLR8 (Homo sapiens, UniProt Q9NR97)
# Construct: expressed in transfected cells
# assayProcedure: TLR7/8 reporter assay (HEK293, NFκB Nanoluc luciferase reporter), human TLR8
# Type: cell-based
# experimentalConditions: asterisk (*): 7 hour-incubation; read-out: hTLR8 EC50
resultType: EC50 (nM)
Output spec: scalar in nM, unitless text.

// field: EC50; key: CCCCCNc1nc(N)nc2ccn(Cc3ccc(CNCC4CCC4)cc3OC)c12 [Ex12] ; value = 685

* * *

# studySystem: mouse TLR7 (Mus musculus, UniProt P58681)
# assayProcedure: TLR7/8 reporter assay (HEK293, NFκB Nanoluc luciferase reporter), mouse TLR7
# experimentalConditions: 24-hour incubation; read-out: mTLR7 EC50
Sorting guide: entries reporting EC50 beneath 30 nM go in the True pile, the rest go in the False pile.

A selection of reference data follows.
compound	qualitativeLabel
CCCCCNc1nc(N)nc2ccn(Cc3ccc(CN4CCNC[C@@H]4CF)cc3OC)c12 [Ex10]	True
CCCCCNc1nc(N)nc2ccn(Cc3ccc(CNC4CC4)cc3OC)c12 [Ex3]	True

### Prompt I'd appreciate it if you could check whether CCCCCSc1nc(N)nc2ccn(Cc3ccc(CN4CC[C@@H](CN)C4)cc3OC)c12 [Ex15] has EC50 smaller than 30 nM.
### Response False

* * *

# studySystem: human TLR8 (Homo sapiens)
# Construct: expressed in transfected cells
# Sequence (Q9NR97 27-1041): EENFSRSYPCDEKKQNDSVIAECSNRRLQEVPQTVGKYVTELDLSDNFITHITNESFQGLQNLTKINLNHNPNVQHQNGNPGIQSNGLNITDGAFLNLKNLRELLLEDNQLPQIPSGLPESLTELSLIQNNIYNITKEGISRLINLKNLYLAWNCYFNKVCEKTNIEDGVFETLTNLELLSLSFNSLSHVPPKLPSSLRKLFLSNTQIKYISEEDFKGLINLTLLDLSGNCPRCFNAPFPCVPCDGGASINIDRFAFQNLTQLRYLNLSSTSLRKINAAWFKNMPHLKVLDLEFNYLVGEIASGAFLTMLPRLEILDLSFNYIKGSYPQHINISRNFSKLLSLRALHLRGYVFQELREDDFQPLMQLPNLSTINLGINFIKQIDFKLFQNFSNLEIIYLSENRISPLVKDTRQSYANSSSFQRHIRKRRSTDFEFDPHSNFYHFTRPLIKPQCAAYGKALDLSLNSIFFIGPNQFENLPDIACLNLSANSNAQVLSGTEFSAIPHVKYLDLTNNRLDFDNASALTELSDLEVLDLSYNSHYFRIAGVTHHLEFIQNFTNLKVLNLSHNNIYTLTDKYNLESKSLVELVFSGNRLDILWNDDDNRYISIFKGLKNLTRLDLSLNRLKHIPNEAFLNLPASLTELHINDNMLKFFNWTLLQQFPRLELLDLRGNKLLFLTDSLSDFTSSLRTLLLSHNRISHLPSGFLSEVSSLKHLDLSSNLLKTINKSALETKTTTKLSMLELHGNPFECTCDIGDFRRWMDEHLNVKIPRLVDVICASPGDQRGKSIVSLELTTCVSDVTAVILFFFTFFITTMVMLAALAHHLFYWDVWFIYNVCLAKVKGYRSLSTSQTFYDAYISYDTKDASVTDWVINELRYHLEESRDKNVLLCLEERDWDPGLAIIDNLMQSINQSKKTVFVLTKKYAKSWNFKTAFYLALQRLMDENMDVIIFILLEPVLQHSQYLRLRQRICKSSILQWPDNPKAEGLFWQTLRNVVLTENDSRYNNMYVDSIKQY
# assayProcedure: TLR7/8 reporter assay (HEK293, NFκB Nanoluc luciferase reporter), human TLR8
# Assay type: cell-based
# experimentalConditions: 24-hour incubation; read-out: hTLR8 EC50
# Source text: HEK293 cells (ATCC, #CRL-1573) were co-transfected with an expression vector having a nucleotide sequence encoding a TLR (human TLR7, human TLR8 or mouse TLR7) protein and a Nanoluc PEST luciferase reporter vector having an NFκB response element sequence (Genbank: JQ513377 bases 33 to 84) integrated therein. […]
Counter-ions that a name gives are not always drawn.
resultType: pEC50
Quick note: pEC50 means taking -log10 of the concentration in moles per liter.

Example entries and their recorded answers appear below.
molecule	studySystem	pEC50
CCCCCSc1nc(N)nc2ccn(Cc3ccc(CN4CCC(O)CC4)cc3OC)c12	human TLR8 (Homo sapiens)	5.18
CCCCCNc1nc(N)nc2c(Cl)cn(Cc3ccc(CN4CC[C@H]4CO)cc3OC)c12	human TLR8 (Homo sapiens)	5.43

Summary line: CCCCCNc1nc(N)nc2cc(C)n(Cc3ccc(CN4CCNCC4)cc3OC)c12 [Ex8, hydrochloride] , human TLR8 (Homo sapiens), reported pEC50 = 5.68

Field pEC50 (system: human TLR8 (Homo sapiens)) for entry CCCCCSc1nc(N)nc2ccn(Cc3ccc(CN4CC[C@H]4CO)cc3OC)c12 = 5.21

The measured pEC50 that CCCCCSc1nc(N)nc2ccn(Cc3ccc(CN4CC[C@@H](CN)C4)cc3OC)c12 showed for human TLR8 (Homo sapiens) is 5.31

Bench note, human TLR8 (Homo sapiens): entry CCCCCNc1nc(N)nc2c(Br)cn(Cc3ccc(CN4CCC[C@H]4CO)cc3OC)c12 , its pEC50 = 5.70

Param item: CCCCCNc1nc(N)nc2ccn(Cc3ccc(CN4CCNC[C@@H]4CF)cc3OC)c12 ; param system: human TLR8 (Homo sapiens); output pEC50: 6.15

# CCCCCSc1nc(N)nc2ccn(Cc3ccc(CN4CCC[C@H]4CO)cc3OC)c12 with human TLR8 (Homo sapiens): pEC50 is 4.93

pEC50 for human TLR8 (Homo sapiens) with input COc1cc(CN2CCNC[C@H]2CF)ccc1Cn1ccc2nc(N)nc(SCc3cc(C)on3)c21 equals 4.88

The molecule CCCCCNc1nc(N)nc2ccn(Cc3ccc(CC4CCNCC4)cc3OC)c12 , tested on human TLR8 (Homo sapiens), showed pEC50 of 5.93

The molecule CCCCCNc1nc(N)nc2c(Cl)cn(Cc3ccc(CN4CCC[C@H]4CO)cc3OC)c12 , when measured on human TLR8 (Homo sapiens), yielded pEC50 of 6.02

Fill in: human TLR8 (Homo sapiens) pEC50 for CCCCCNc1nc(N)nc2ccn(Cc3ccc(CN4CCN[C@@H](CF)C4)cc3OC)c12 [Ex2, (trifluoroacetic acid) salt] = 5.71

The observed pEC50 for CCCCCNc1nc(N)nc2ccn(Cc3ccc(CNC4CC4)cc3OC)c12 when tested with human TLR8 (Homo sapiens) stands at 5.67

# value of pEC50, human TLR8 (Homo sapiens), item CCCCCSc1nc(N)nc2ccn(Cc3ccc(CN4CCNCC4)cc3OC)c12 = 5.61

Form field pEC50 for item CCCCCNc1nc(N)nc2c(Cl)cn(Cc3ccc(CN4CCC[C@H]4C(C)(C)O)cc3OC)c12 on human TLR8 (Homo sapiens): 5.44

With human TLR8 (Homo sapiens) as the test system, CCCCCNc1nc(N)nc2ccn(Cc3ccc(CN4CCNC[C@H]4CF)cc3OC)c12 showed pEC50 of 6.66
